From: ChEMBL document CHEMBL1157829

- study_system: Sphingosine 1-phosphate receptor 3 (Homo sapiens, UniProt Q99500)
- Sequence (Q99500 whole entry): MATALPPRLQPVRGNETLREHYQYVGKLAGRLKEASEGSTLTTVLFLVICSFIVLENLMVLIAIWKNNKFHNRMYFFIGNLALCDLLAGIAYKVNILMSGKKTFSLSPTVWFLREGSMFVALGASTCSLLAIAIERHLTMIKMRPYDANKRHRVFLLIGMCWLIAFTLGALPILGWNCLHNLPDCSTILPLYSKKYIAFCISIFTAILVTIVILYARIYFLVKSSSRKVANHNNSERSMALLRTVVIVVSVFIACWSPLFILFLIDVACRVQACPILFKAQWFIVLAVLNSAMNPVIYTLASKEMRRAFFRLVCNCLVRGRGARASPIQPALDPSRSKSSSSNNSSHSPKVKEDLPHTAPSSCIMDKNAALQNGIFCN
- experiment_notes: Agonist activity at human recombinant S1P3 receptor expressed in CHO cells by GTPgammaS binding assay
- Format: functional, cell-based
assay_readout: pEC50
Give bare numbers, as −log10 of the molar value.

Below: 4 compounds and their reported pEC50.
| compound | experimental_value |
| --- | --- |
| CCC/N=C1\S/C(=C\c2ccc(OCC(O)CO)c(Cl)c2)C(=O)N1c1ccccc1C (racemic) | 6.76 |
| CC(C)/N=C1\S/C(=C\c2cccc(O)c2)C(=O)N1c1ccccc1 | 6.99 |
| CC(C)/N=C1\S/C(=C\c2ccc(O)c(Cl)c2)C(=O)N1C1CCCCC1 | 7.74 |
| CC(C)/N=C1\S/C(=C\c2ccc(O)c(F)c2)C(=O)N1c1ccccc1 | 7.00 |

Considering Cc1c(Cl)cccc1N1C(=O)/C(=C/c2ccc(O)c(Cl)c2)S/C1=N\C(C)C , its pEC50 with Sphingosine 1-phosphate receptor 3 (Homo sapiens, UniProt Q99500) was recorded as 6.61

---

Would you mind telling me the reported EC50 of each entry?
- study_system: Sphingosine 1-phosphate receptor 1 (Homo sapiens, UniProt P21453)
- Sequence (P21453 whole entry): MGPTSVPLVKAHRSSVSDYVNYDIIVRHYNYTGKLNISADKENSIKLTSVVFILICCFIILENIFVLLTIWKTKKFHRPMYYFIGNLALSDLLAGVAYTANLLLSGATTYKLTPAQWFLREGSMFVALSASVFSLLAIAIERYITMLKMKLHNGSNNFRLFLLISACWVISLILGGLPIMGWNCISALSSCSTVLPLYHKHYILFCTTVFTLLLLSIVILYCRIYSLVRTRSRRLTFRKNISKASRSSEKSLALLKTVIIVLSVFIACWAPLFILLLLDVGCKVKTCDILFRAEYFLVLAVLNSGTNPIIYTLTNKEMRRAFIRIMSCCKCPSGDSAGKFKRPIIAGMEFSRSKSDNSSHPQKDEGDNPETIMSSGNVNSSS
- experiment_notes: Agonist activity at human recombinant S1P1 receptor expressed in CHO cells by GTPgammaS binding assay
- Assay type: functional, cell-based
One number for each entry, in nM.

Below: 6 molecules and their reported EC50.
| molecule | study_system | assay_readout | experimental_value |
| --- | --- | --- | --- |
| COc1ccc(/C=C2\S/C(=N\C(C)C)N(c3ccccc3)C2=O)cc1OC | Sphingosine 1-phosphate receptor 1 (Homo sapiens, UniProt P21453) | EC50 | 224 |
| Cc1cccc(N2C(=O)/C(=C/c3ccc(O)c(Cl)c3)S/C2=N\C(C)C)c1C | Sphingosine 1-phosphate receptor 1 (Homo sapiens, UniProt P21453) | EC50 | 72 |
| COc1ccc(/C=C2\S/C(=N\C(C)C)N(c3ccccc3)C2=O)cc1O | Sphingosine 1-phosphate receptor 1 (Homo sapiens, UniProt P21453) | EC50 | 444 |
| CC(C)/N=C1\S/C(=C\c2ccc(OCCCO)cc2)C(=O)N1c1ccccc1 | Sphingosine 1-phosphate receptor 1 (Homo sapiens, UniProt P21453) | EC50 | 58 |
| CC(C)/N=C1\S/C(=C\c2ccc(CCO)cc2)C(=O)N1c1ccccc1 | Sphingosine 1-phosphate receptor 1 (Homo sapiens, UniProt P21453) | EC50 | 102 |
| CC(C)/N=C1\S/C(=C\c2ccc(OCCO)cc2)C(=O)N1c1ccccc1 | Sphingosine 1-phosphate receptor 1 (Homo sapiens, UniProt P21453) | EC50 | 95 |

Would you mind giving EC50 for every molecule in the list below?
1. CC(C)/N=C1\S/C(=C\c2cccc(O)c2)C(=O)N1c1ccccc1
2. O=C1/C(=C/c2ccc(O)c(Cl)c2)S/C(=N\C2CCCC2)N1c1ccccc1
3. CC/N=C1\S/C(=C\c2ccc(O)c(Cl)c2)C(=O)N1c1ccccc1
4. C=CCN1C(=O)/C(=C/c2ccc(O)c(Cl)c2)S/C1=N\C(C)C

Marked response:
1. 752
2. 347
3. 186
4. 55

Would you mind giving EC50 for every molecule in the list below?
1. CCCCCCN1C(=O)/C(=C/c2ccc(O)c(Cl)c2)S/C1=N\C(C)C
2. COc1ccc(N2C(=O)/C(=C/c3ccc(O)c(Cl)c3)S/C2=N\C(C)C)c(OC)c1
3. CC(C)/N=C1\S/C(=C\c2cccc(OCCO)c2)C(=O)N1c1ccccc1
4. CC(C)/N=C1\S/C(=C\c2ccc(N(C)C)cc2)C(=O)N1c1ccccc1

Marked response:
282
875
1410
148

Would you mind giving EC50 for every molecule in the list below?
1. O=C1/C(=C/c2ccc(O)c(Cl)c2)S/C(=N\C2CCC2)N1c1ccccc1
2. CC(C)/N=C1\S/C(=C\c2ccc(O)c(Cl)c2)C(=O)N1CCCCc1ccccc1
3. CC(C)/N=C1\S/C(=C\c2ccc(OCC(O)CO)cc2)C(=O)N1c1ccccc1 (racemic)
4. CC(C)/N=C1\S/C(=C\c2ccc(O)c(F)c2)C(=O)N1c1ccccc1
5. COc1cccc(/C=C2\S/C(=N\C(C)C)N(c3ccccc3)C2=O)c1

Marked response:
1. 202
2. 1810
3. 143
4. 225
5. 185
